Target: NADPH oxidase 4 (Homo sapiens) (UniProt Q9NPH5)
Sequence (Q9NPH5 whole entry, looked up): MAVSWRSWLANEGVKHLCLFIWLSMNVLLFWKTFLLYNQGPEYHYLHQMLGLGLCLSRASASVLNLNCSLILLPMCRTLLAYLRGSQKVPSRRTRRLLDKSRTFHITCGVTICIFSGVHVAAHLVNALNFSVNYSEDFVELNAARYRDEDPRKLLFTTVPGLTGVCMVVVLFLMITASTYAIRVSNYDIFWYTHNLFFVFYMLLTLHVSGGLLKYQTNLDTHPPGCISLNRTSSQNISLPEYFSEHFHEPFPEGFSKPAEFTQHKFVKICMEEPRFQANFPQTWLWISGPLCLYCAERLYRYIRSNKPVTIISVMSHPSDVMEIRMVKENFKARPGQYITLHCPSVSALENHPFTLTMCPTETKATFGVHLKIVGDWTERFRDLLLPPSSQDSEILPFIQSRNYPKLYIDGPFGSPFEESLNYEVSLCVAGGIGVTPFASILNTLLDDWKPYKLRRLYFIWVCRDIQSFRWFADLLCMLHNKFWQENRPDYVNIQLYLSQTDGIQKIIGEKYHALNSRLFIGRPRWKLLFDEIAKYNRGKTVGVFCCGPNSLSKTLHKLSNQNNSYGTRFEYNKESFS
Assay: NOX4-dependent H2O2 signal modulators, primary screen, NOX inhibitor project, cell-based, HEK293-NOX4, tetracycline-induced, Amplex Red fluorescence (AID 1160)
Conditions: 45 min, higher = more signal, called active from +8 up or from −8 down
endpoint.name: z-score
Numbers only.

| compound | z-score |
| --- | --- |
| [N-]=[N+]=NCc1ccccc1[C@@H]1OC(c2ccc(OCCCO)cc2)=N[C@]1(Cc1ccccc1N=[N+]=[N-])C(=O)NCCN1CCOCC1 | -0.406 |
| COc1cc2c(cc1O)C(c1cccs1)N(Cc1sc3ccccc3c1Cl)CC2 (stereo not drawn) | -2.48 |
| COC(=O)C(CC#Cc1ccc2c(c1)[C@]1(C(=O)N2)[C@H](c2ccc(OCCO)cc2)N2[C@H](c3ccccc3)[C@H](c3ccccc3)OC(=O)[C@H]2[C@@H]1C(=O)N1CCN(c2ncccn2)CC1)C(=O)OC | 1.05 |
| C=CCN1C(=O)[C@@]2(O[C@@H](CCO)[C@H]([Si](C)(C)c3ccc(OC)cc3)[C@H]2C)c2cc(N3CCOC3=O)ccc21 | 1.35 |
| COCCOC(=O)N1C(=O)[C@@]2(c3cc(C#CC4(O)CCCCCC4)ccc31)[C@H](C(=O)N1CCN(c3ncccn3)CC1)[C@H]1C(=O)O[C@H](c3ccccc3)[C@H](c3ccccc3)N1[C@@H]2c1ccccc1OCCO | -0.726 |

For each of the compounds below, note its z-score.
1. O=C1c2ccccc2[C@](Cc2ccccc2I)(C(=O)NC2CC2)[C@H](c2ccc(CO)cc2)N1Cc1ccccc1C(F)(F)F
2. C=CCC(OC(C)=O)[C@@H]1[C@@H](N(Cc2cccc3ccccc23)C(=O)c2cccc3ccccc23)c2cc(OCCCO)ccc2N1C(=O)c1ccc2ccccc2c1 (stereo partly drawn)
3. CCOC(=O)C1=CC[C@@H](c2ccccc2)N(S(=O)(=O)c2ccc(C)cc2)[C@H]1C=Cc1ccccc1

[out]
1: -1.34; 2: -1.09; 3: -0.395

----------
Test: small-molecule microarray binders of probe aEGFR, primary screen, biochemical, biotinylated probe, 635/667 nm fluorescence (AID 1097);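 note: probe is a biotinylated anti-EGFR antibody binding compounds printed on slides; score combines fluorescence near 667 nm and signal to noise of each spot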
Settings: higher = more signal
endpoint.name: composite z-score

Worked examples follow.
| compound | endpoint.name | experimental.value |
| --- | --- | --- |
| NCCCCCNC(=O)[C@@H]1C[C@@H]2C(=O)N3CCC[C@H]3C(=O)N2[C@@H]1c1ccc(O)cc1 | composite z-score | 0.171 |
| COCCOC(=O)N1C(=O)[C@@]2(c3cc(C#CCC(C(=O)OC)C(=O)OC)ccc31)[C@H](C(=O)NC[C@H](O)c1ccccc1)[C@H]1C(=O)O[C@H](c3ccccc3)[C@H](c3ccccc3)N1[C@@H]2c1ccc(OCCO)cc1 | composite z-score | 0.0097 |
| COc1ccc([Si](C)(C)[C@@H]2[C@@H](CCn3cc([C@H](O)c4ccccc4)nn3)O[C@]3(C(=O)N(c4ccccc4)c4ccccc43)[C@H]2C)cc1 | composite z-score | -0.0452 |
| CC(C)CNC(=O)[C@@]1(C)c2ccccc2C(=O)N(Cc2cc(C(F)(F)F)cc(C(F)(F)F)c2)[C@H]1c1ccc(CO)cc1 | composite z-score | -0.1 |
| CCCCNC(=O)c1ccc(C#C[Si](C(C)C)(C(C)C)C(C)C)c(OC(C)=O)c1 | composite z-score | -0.0208 |
| CN1C(=O)C2C=CC(C(O)c3cc(C(F)(F)F)cc(C(F)(F)F)c3)N(Nc3ccccc3)C2C1=O (stereo unspecified) | composite z-score | -0.155 |

// batch mode: one composite z-score value per listed entry
1. CCCCCN1CC=CC23O[C@@H]4/C=C\CCC(C)OC(=O)C4[C@H]2C(=O)N(CCCCCCO)[C@@H]3C1=O (stereo partly specified)
2. NC(=O)[C@@H]1[C@H]2C(=O)O[C@H](c3ccccc3)[C@H](c3ccccc3)N2[C@H](c2ccc(OCCO)cc2)[C@@]12C(=O)Nc1ccc(C#CCCO)cc12
3. CCOC(=O)C[C@H]1[C@H](OC(=O)c2ccccc2-c2ccccc2)[C@@H](NC(=O)c2ccccc2)c2cc(OCCCO)ccc2N1C(=O)c1ccccc1
4. NC(=O)N1C(=O)C2C(C1=O)C1C=C(CCCO)C2C(C2CC2)N1Cc1cccc(OC(F)(F)F)c1 (stereo unspecified)

[out]
1. -0.126
2. -0.0622
3. -0.0726
4. -0.184

// batch mode: one composite z-score value per listed entry
1. CC(C)=CCCC(C)=CC(O)C1C=CC2C(=O)N(c3ccccc3)C(=O)C2N1Nc1ccccc1F (stereo unspecified)
2. O=C1N(CCS(=O)(=O)c2ccccc2)Cc2ccccc2[C@@H]2OC(c3ccc(OCCCO)cc3)=N[C@]12CCS(=O)(=O)c1ccccc1
3. C=C[C@@H](C)[C@H](O)c1ccc(OCCO)cc1
4. CN(C)C(=O)[C@]1(CCS(=O)(=O)c2ccccc2)N=C(c2ccc(OCCCO)cc2)O[C@@H]1c1ccccc1
5. C=C(COC)/C(=C/C[C@@H](OC(C)=O)c1ccc(CO)o1)c1cc(C(=O)OC)ccc1OC
6. C=CCNC(=O)[C@@H]1[C@H]2C(=O)O[C@H](c3ccccc3)[C@H](c3ccccc3)N2[C@H](c2ccc(OCCO)cc2)[C@@]12C(=O)N(C(=O)OCCOC)c1ccc(C#CCCO)cc12

[out]
1: -0.0828; 2: 0.266; 3: -0.37; 4: 0.127; 5: -0.0828; 6: -0.0088

Please look at the items below and tell me composite z-score for each one, in order.
1. CO[C@H]1O[C@H](CO)[C@@H](OC(=O)c2ccc(Br)cc2)[C@@H]2OC(=O)[C@H](Cc3ccccc3)C/C=C/C[C@@H](Cc3ccccc3)C(=O)O[C@@H]12
2. C=CCC(OC(C)=O)[C@@H]1[C@@H](N(Cc2cccc3ccccc23)C(=O)Cc2ccc(F)cc2)c2cc(OCCCO)ccc2N1C(=O)c1ccc(-c2ccccc2)cc1 (stereo partly specified)
3. O=C1OCCC=C[C@H]2OC34C=CCN(c5ccc(Cl)cc5)C(=O)[C@H]3N(CCCCCCO)C(=O)[C@@H]4C12 (stereo partly specified)
4. CCC(CC)C(O)C1C=CC2C(=O)N(c3ccccc3)C(=O)C2N1Nc1ccc([N+](=O)[O-])cc1 (stereo unspecified)
5. C=CCC(OC(C)=O)[C@@H]1[C@@H](N(Cc2ccc(-c3cccc(C(F)(F)F)c3)o2)C(=O)c2cccc3ccccc23)c2cc(OCCCO)ccc2N1C(=O)Cc1ccc(OC)cc1 (stereo partly specified)

[out]
[-0.176, 0.0457, -0.191, 0.277, -0.133]

----------
Biological target: Streptavidin (Streptomyces avidinii) (UniProt P22629)
Sequence (P22629 whole entry, looked up): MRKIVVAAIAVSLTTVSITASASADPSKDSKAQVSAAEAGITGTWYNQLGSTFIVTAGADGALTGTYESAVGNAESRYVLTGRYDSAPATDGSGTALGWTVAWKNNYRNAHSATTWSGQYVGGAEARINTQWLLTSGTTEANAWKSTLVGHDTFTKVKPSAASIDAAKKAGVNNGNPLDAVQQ
Experiment: streptavidin binders on small-molecule microarray, primary screen, artefact control for SMM compound annotation, biophysical, 635/667 nm fluorescence (AID 1147);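 note: signal reflects streptavidin binding to arrayed compounds as a control protein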
Details: streptavidin binding, higher = more signal
endpoint.name: composite z-score
Give bare numbers.

Example compounds with recorded composite z-score:
| compound | composite z-score |
| --- | --- |
| C[C@]1(C(=O)O)c2ccccc2C(=O)N(Cc2ccc(OC(F)(F)F)cc2)[C@H]1c1ccc(CO)cc1 | -0.129 |
| COc1cc2c(cc1O)C(c1cccs1)N(Cc1sc3ccccc3c1Cl)CC2 (stereo not drawn) | 1.64 |
| O=C1C[C@@](C(=O)NCc2ccccc2)(c2ccc([N+](=O)[O-])cc2)[C@@H](c2ccc(CO)cc2I)N1CC12CC3CC(CC(C3)C1)C2 | 0.0117 |
| [N-]=[N+]=NCc1ccccc1C[C@]1(C(=O)N2CCOCC2)COC(c2ccc(OCCCO)cc2)=N1 | 1.6 |
| C=C(CCCC)C(=O)CC[C@H](OC(=O)c1ccccc1-c1ccccc1C(=O)O)c1ccccc1OCCO | -0.759 |
| COCCOC(=O)N1C(=O)[C@@]2(c3cc(C#CCNC(N)=O)ccc31)[C@H](c1ccc(OCCO)cc1)N1[C@H](c3ccccc3)[C@H](c3ccccc3)OC(=O)[C@H]1[C@@H]2C(=O)NC[C@H](O)c1ccccc1 | 0.904 |
| NCCCCCNC(=O)[C@H]1C[C@H]2C(=O)N[C@@H](Cc3ccccc3)C(=O)N2[C@H]1c1ccc(O)cc1 | 1.13 |

[in] Give the reported value of composite z-score for this record: COc1cc(NN2C(C(O)c3cc(OC)c(OC)c(OC)c3)C=CC3C(=O)N(c4ccccc4)C(=O)C32)cc(OC)c1OC (stereo not drawn)
[out] 1.8

----------
Field: z-score. Provide a value for each of the compounds that follow.
Test: FRG1 promoter luciferase signal modulators, primary screen, FRG1 inhibition for FSHD, cell-based, C2C12 myotubes, firefly/Renilla luciferase, luminescence (AID 1084)
Conditions: higher = more signal, called active from +8 up or from −8 down
One number for each entry.

Sample answers from the record:
| compound | z-score |
| --- | --- |
| O=C1O[C@H](c2ccccc2)[C@H](c2ccccc2)N2[C@H]1[C@@H](C(=O)Nc1nc3ccccc3s1)[C@]1(C(=O)Nc3ccc(C#CC4=CCCCC4)cc31)[C@H]2c1ccc(O)cc1 | -0.305 |
| CCOC(=O)C=Cc1ccccc1O | 0.911 |
| [N-]=[N+]=Nc1ccccc1C[C@]1(C(=O)O)N=C(c2ccc(OCCCO)cc2)O[C@H]1c1ccccc1 | -1.4 |
| [N-]=[N+]=NCc1ccccc1C[C@]1(C(=O)N2CCOCC2)COC(c2ccc(OCCCO)cc2)=N1 | -2.87 |
| CN1C(=O)C2C(C1=O)C1C=C(CCCO)C2C(C2CC2)N1Cc1cc2c(cc1Br)OCO2 (configuration not stated) | -0.999 |
| C=CCN1C(=O)[C@]2(O[C@H](CCO)[C@@H]([Si](C)(C)c3ccc(OC)cc3)[C@@H]2C)c2cc(N3C(=O)COc4ccccc43)ccc21 | -0.998 |

Value sought for every listed compound: z-score.
1. COc1ccc(C(O)C2C=CC3C(=O)N(c4ccccc4)C(=O)C3N2Nc2ccccc2F)cc1 (configuration not stated)
2. CS(=O)(=O)CCOC(=O)C1=CC(CCCO)=CC(C2CC2)N(Cc2cccc(OC(F)(F)F)c2)C=C1C(=O)OCCS(C)(=O)=O (configuration not stated)
3. CN(C)CCCCNC(=O)[C@H]1C[C@H]2C(=O)N[C@@H](CCCC[N+](C)(C)C)C(=O)N2[C@H]1c1ccc(O)cc1
4. CC(C)[C@H]1NC(=O)[C@@]23C(=O)N[C@@H](Cc4ccccc4)C2[C@H](C)[C@@]2(C)O[C@H]2C3/C=C/CCC/C=C/CNC(=O)[C@H](Cc2ccccc2)NC1=O (some centres not stated)
5. C=CCOC(=O)[C@H]1[C@@H]2C(=O)O[C@@H](c3ccccc3)[C@@H](c3ccccc3)N2[C@@H](c2ccc(OCCOC(=O)[C@H]3C[C@H]4C(=O)N[C@@H](CCCCNC(C)=O)C(=O)N4[C@H]3c3cccc(OCCO)c3)cc2)[C@]12C(=O)Nc1ccc(I)cc12
6. C=CCNC(=O)[C@@H]1[C@H]2C(=O)O[C@H](c3ccccc3)[C@H](c3ccccc3)N2[C@H](c2ccc(O)cc2)[C@@]12C(=O)Nc1ccc(C#CCC(C(=O)OC)C(=O)OC)cc12

[out]
1. 0.425
2. 0.677
3. 3.25
4. 0.966
5. 0.29
6. 1.03
